Just for reference, patent US12371454B2 is where these values come from.

- test-system: Kras and SOS1 (biotin-tagged human Kras loaded with GDP, His-tagged human SOS1) (Homo sapiens, UniProt P01116, G12D)
- Construct: made in house; host or cells: E. coli (stated for Kras only)
- Sequence (P01116 1-188 isoform P01116-2 G12D): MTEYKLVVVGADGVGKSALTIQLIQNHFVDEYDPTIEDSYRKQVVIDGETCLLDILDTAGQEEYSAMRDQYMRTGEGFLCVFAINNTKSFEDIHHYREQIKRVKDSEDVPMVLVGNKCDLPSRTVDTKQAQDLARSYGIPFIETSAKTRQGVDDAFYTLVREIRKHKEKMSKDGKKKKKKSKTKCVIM
- measurement-description: Protein-protein interaction inhibition between Kras and SOS1 (KrasGl2D-SOS PPI) using AlphaScreen
- Type: binding
- test-settings: AlphaScreen; biotin-tagged human Kras loaded with GDP, His-tagged human SOS1; read-out: KRAS G12D-SOS PPI IC50
Positions of bridges follow the written chain, without caps; N, C: chain ends. Non-standard residues stand in square brackets, D forms with d. Residues, ends and D or L forms follow the SMILES beside them. *: point of attachment. hPhe(3-Cl-4-CF3) = N[C@@H](CCc1ccc(C(F)(F)F)c(Cl)c1)C(=O)O; NMeTyr(3-F) = CN[C@@H](Cc1ccc(O)c(F)c1)C(=O)O; NMePhe(4-Me) = CN[C@@H](Cc1ccc(C)cc1)C(=O)O; NMe4Pal = CN[C@@H](Cc1ccncc1)C(=O)O; NMeCha = CN[C@@H](CC1CCCCC1)C(=O)O; NMeChg = CN[C@H](C(=O)O)C1CCCCC1; NMeI = CC[C@H](C)[C@H](NC)C(=O)O; NMeD = CN[C@@H](CC(=O)O)C(=O)O; NMeL = CN[C@@H](CC(C)C)C(=O)O; NMeA = CN[C@@H](C)C(=O)O; Piperidide = C1CCN(*)CC1; Ac5c = NC1(C(=O)O)CCCC1; Aze = O=C(O)[C@@H]1CCN1; Sar = CNCC(=O)O
Exercise: for every item that follows, state its recorded pIC50.
The value called pIC50 is obtained by taking minus log10 of the concentration in mol/L.

Form field: reported pIC50 of CC[C@H](C)[C@@H]1NC(=O)[C@H](CC(C)C)N(C)C(=O)C[C@@H](C(=O)N(C)C)N(C)C(=O)[C@H]([C@@H](C)CC)N(C)C(=O)C2(CCCC2)NC(=O)[C@H](Cc2ccncc2)N(C)C(=O)[C@H](CCc2ccc(C(F)(F)F)c(Cl)c2)NC(=O)CN(C)C(=O)[C@H](Cc2ccc(C)cc2)N(C)C(=O)[C@@H]2CCN2C(=O)[C@H](C)N(C)C1=O [Compound 1962] ([NMeL]I[NMeA][Aze][NMePhe(4-Me)][Sar][hPhe(3-Cl-4-CF3)][NMe4Pal][Ac5c][NMeI][NMeD]-NMe2; lactam N-11)
8.85

Form field: reported pIC50 of CC[C@H](C)[C@@H]1NC(=O)[C@H](CC(C)C)N(C)C(=O)C[C@@H](C(=O)N2CCCCC2)N(C)C(=O)[C@H](C2CCCCC2)N(C)C(=O)C2(CCCC2)NC(=O)[C@H](Cc2ccc(O)c(F)c2)N(C)C(=O)[C@H](CCc2ccc(C(F)(F)F)c(Cl)c2)NC(=O)CN(C)C(=O)[C@H](CC2CCCCC2)N(C)C(=O)CN(C)C(=O)CN(C)C1=O [Compound 2170] ([NMeL]I[Sar][Sar][NMeCha][Sar][hPhe(3-Cl-4-CF3)][NMeTyr(3-F)][Ac5c][NMeChg][NMeD]-Piperidide; lactam N-11)
7.16
